# system: NDM-1 (Klebsiella pneumoniae, UniProt C7C422)
# Construct: His tag (inferred from the HisTrap FF purification and the pOPINF vector; no tag is printed as such); made in house; host or cells: Escherichia coli BL21 2D3
# Sequence (C7C422 29-270 limits assumed): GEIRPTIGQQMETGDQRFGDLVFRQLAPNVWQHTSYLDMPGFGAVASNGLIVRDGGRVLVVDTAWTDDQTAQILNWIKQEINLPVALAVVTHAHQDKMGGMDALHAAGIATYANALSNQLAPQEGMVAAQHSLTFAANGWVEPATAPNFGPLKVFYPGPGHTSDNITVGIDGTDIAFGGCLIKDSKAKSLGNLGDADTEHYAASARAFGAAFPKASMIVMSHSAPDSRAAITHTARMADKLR
# Assay type: biochemical, K. pneumoniae
# run-conditions: free NDM-1 300 μg·ml^−1, antibiotic 100 μg·ml^−1, final volume 1 mL, deionized water, HEPES 12.5 mM, room temperature, 100 rpm
Friendly reminder: degraded amount after 1 hour below 5 µg is fulfilled, at or above is not fulfilled.

>  <structure-string>
COc1cc(Cc2cnc(N)nc2N)cc(OC)c1OC

>  <class-assignment>
fulfilled

$$$$
>  <structure-string>
CC[C@H]1OC(=O)C[C@@H](O)[C@H](C)[C@@H](O[C@@H]2O[C@H](C)[C@@H](O[C@H]3C[C@@](C)(O)[C@@H](O)[C@H](C)O3)[C@H](N(C)C)[C@H]2O)[C@@H](CC=O)C[C@@H](C)C(=O)/C=C/C(C)=C/[C@@H]1CO[C@@H]1O[C@H](C)[C@@H](O)[C@@H](OC)[C@H]1OC

>  <class-assignment>
not fulfilled

$$$$
>  <structure-string>
Cc1cc(NS(=O)(=O)c2ccc(N)cc2)no1

>  <class-assignment>
fulfilled

$$$$
>  <structure-string>
CC1(C)S[C@@H]2[C@H](NC(=O)[C@H](N)c3ccc(O)cc3)C(=O)N2[C@H]1C(=O)O

>  <class-assignment>
not fulfilled

$$$$
>  <structure-string>
CC[C@H]1OC(=O)[C@H](C)[C@@H](O[C@H]2C[C@@](C)(OC)[C@@H](O)[C@H](C)O2)[C@H](C)[C@@H](O[C@@H]2O[C@H](C)C[C@H](N(C)C)[C@H]2O)[C@](C)(O)C[C@@H](C)C(=O)[C@H](C)[C@@H](O)[C@]1(C)O

>  <class-assignment>
not fulfilled

$$$$

* * *

Collected Autolysis of antibiotic after 1 hour values appear next to each entry.
# test-details: Autolysis of antibiotic after 1 hour
# Type: physicochemical
# run-conditions: antibiotic 100 μg·ml^−1, deionized water, HEPES 12.5 mM, room temperature
Positions of bridges follow the written chain, without caps; N, C: chain ends. Non-standard residues stand in square brackets, D forms with d. Residues, ends and D or L forms follow the SMILES beside them. *: point of attachment. Ileψ(thiazoline)Cys = CC[C@H](C)[C@H](N)C1=N[C@H](C(=O)*)CS1; dOrn = NCCC[C@@H](N)C(=O)O

>  <compound>
Cc1cc(NS(=O)(=O)c2ccc(N)cc2)no1

>  <Autolysis of antibiotic after 1 hour (µg/mL)>
0

$$$$
>  <compound>
CCC[C@@H]1C[C@@H](C(=O)N[C@@H]([C@H]2O[C@H](SC)[C@H](O)[C@@H](O)[C@H]2O)[C@@H](C)O)N(C)C1

>  <Autolysis of antibiotic after 1 hour (µg/mL)>
0.01

$$$$
>  <compound>
CC[C@H](C)[C@H](N)C1=N[C@H](C(=O)N[C@@H](CC(C)C)C(=O)N[C@H](CCC(=O)O)C(=O)N[C@H](C(=O)N[C@H]2CCCCNC(=O)[C@H](CC(N)=O)NC(=O)[C@@H](CC(=O)O)NC(=O)[C@H](Cc3cnc[nH]3)NC(=O)[C@@H](Cc3ccccc3)NC(=O)[C@H]([C@@H](C)CC)NC(=O)[C@@H](CCCN)NC2=O)[C@@H](C)CC)CS1 [bacitracin] ({Ileψ(thiazoline)Cys}-L[dE]IK[dOrn]I[dF]H[dD]N; lactam 4-C)

>  <Autolysis of antibiotic after 1 hour (µg/mL)>
0

$$$$
>  <compound>
CC[C@H]1OC(=O)[C@H](C)[C@@H](O[C@H]2C[C@@](C)(OC)[C@@H](O)[C@H](C)O2)[C@H](C)[C@@H](O[C@@H]2O[C@H](C)C[C@H](N(C)C)[C@H]2O)[C@](C)(O)C[C@@H](C)C(=O)[C@H](C)[C@@H](O)[C@]1(C)O

>  <Autolysis of antibiotic after 1 hour (µg/mL)>
0

$$$$
>  <compound>
CC[C@H]1OC(=O)C[C@@H](O)[C@H](C)[C@@H](O[C@@H]2O[C@H](C)[C@@H](O[C@H]3C[C@@](C)(O)[C@@H](O)[C@H](C)O3)[C@H](N(C)C)[C@H]2O)[C@@H](CC=O)C[C@@H](C)C(=O)/C=C/C(C)=C/[C@@H]1CO[C@@H]1O[C@H](C)[C@@H](O)[C@@H](OC)[C@H]1OC

>  <Autolysis of antibiotic after 1 hour (µg/mL)>
0.01

$$$$
>  <compound>
COc1cc(Cc2cnc(N)nc2N)cc(OC)c1OC

>  <Autolysis of antibiotic after 1 hour (µg/mL)>
0.01

$$$$
>  <compound>
CC1(C)S[C@@H]2[C@H](NC(=O)[C@H](N)c3ccc(O)cc3)C(=O)N2[C@H]1C(=O)O

>  <Autolysis of antibiotic after 1 hour (µg/mL)>
0

$$$$
